Assay: qHTS assay to identify small molecule agonists of the vitamin D receptor (VDR) signaling pathway - cell viability counter screen (AID 743224); also: nearly all actives have a fitted effect of over 50% in size
Conditions: VDR-bla HEK293T viability, CellTiter-Glo luminescence, 16 h; series mostly up to 62.6 µM
Records with an inconclusive call do not appear. Calls of active or inactive are those of the source. Calls follow the shape of the dose curve; as a rule, active = well fitted cell-killing curve with a large enough effect in the repeat runs; inconclusive = weak or mixed curves, or effect the other way; inactive = no such curve, though single readings can be large or run the other way.
// allowed return values: true (1) for active, false (0) for inactive

> print(dat)
                                   molecule   category
1                             O=C(O)CC(=O)O  false (0)
2  O=C(O)CCn1c2c(c3ccccc31)C[C@H](NS(=O)(=O)c1ccc(F)cc1)CC2  false (0)
3                   Oc1c(Br)cc(Br)c2cccnc12   true (1)
4               c1cc2c3c(c1)ccc1cccc(c13)C2   true (1)
5    O=C(Oc1ccccc1)c1cccc(C(=O)Oc2ccccc2)c1  false (0)
6                             Cc1cccc(Br)c1  false (0)
7  CC(=O)Oc1ccc(C2(c3ccc(OC(C)=O)cc3)C(=O)Nc3ccccc32)cc1  false (0)
8  CNC(=O)c1cc(Oc2ccc(NC(=O)Nc3ccc(Cl)c(C(F)(F)F)c3)cc2)ccn1   true (1)

INPUT: What was the test verdict on C=CC(C)(CCC=C(C)C)OC(=O)/C=C/c1ccccc1 (stereo not given) ?
OUTPUT: true (1)

INPUT: Would you mind doing `CC(=O)OC(OC(C)=O)c1ccc([N+](=O)[O-])o1` as well?
OUTPUT: true (1)

INPUT: Would you mind doing `O=C(NO)c1ccccc1` as well?
OUTPUT: false (0)

* * *

Assay: qHTS assay to identify small molecule agonists of the hypoxia (HIF-1) signaling pathway - cell viability counter screen (AID 1224844); also: nearly all actives have a fitted effect of over 50% in size
Details: HRE-bla ME-180 viability, CellTiter-Glo luminescence, 17 h; series mostly up to 76.8 µM
From the text: National Center for Advancing Translational Sciences [NCATS] NIH Chemical Genomics Center [NCGC] U.S. Environmental Protection Agency [EPA] National Institutes of Environmental Health Sciences [NIEHS] National Toxicology Program [NTP] U.S. Food and Drug Administration [FDA] Hypoxia-inducible factor-1 (HIF-1) is the major hypoxia-regulated transcription factor that controls cellular responses to low oxygen concentration. […]
Results filed as inconclusive are left out. Active and inactive are the calls of the source. The call rests on the fitted dose curve.
// allowed return values: active, inactive

Consider the worked cases shown below.
> print(dat)
                              smiles.record  category
1  CCCOc1sc(C(=O)N2CCC(c3cc(CN)ccc3F)CC2)c(C)c1Br    active
2                        CCN(CC)c1ccc(N)cc1  inactive

INPUT: What was the test verdict on `CCCCCCCC/C=C\CCCCCCCC(=O)OCCOC(=O)CCCCCCC/C=C\CCCCCCCC` ?
OUTPUT: inactive

* * *

Test: Human pregnane X receptor (PXR) small molecule agonists, qHTS cell viability counter screen (AID 1346977); also: nearly all actives have a fitted effect of over 50% in size
Conditions: PXR-Luc HepG2 viability, CellTiter-Fluor, 24 h; series mostly up to 92.4 µM
Records with an inconclusive call do not appear. The source made the active and inactive calls. The call rests on the fitted dose curve; in most records, active means well fitted cell-killing curve with a large enough effect in the repeat runs; inconclusive means weak or mixed curves, or effect the other way; inactive means flat fitted curve, though single readings scatter.
// allowed return values: 1 = active, -1 = inactive

Consider the worked cases shown below.
COMPOUND	CATEGORY
O=C1OC(OC(=O)c2cccnc2Nc2cccc(C(F)(F)F)c2)c2ccccc21 (centres undefined)	-1
Cc1cncc(C)c1	-1
SCCCCCCCCS	-1
C=CC(=O)OCCC#N	-1

INPUT: What was the test verdict on CO[Si](CCC1CCC2OC2C1)(OC)OC (centres undefined) ?
OUTPUT: -1

INPUT: Would you mind doing `CCCCNc1c(C(=O)OCC)c(C)nc2c1cnn2CC` as well?
OUTPUT: -1

INPUT: Would you mind doing `CC(C)(C)CC(C)(C)c1ccccc1O` as well?
OUTPUT: 1

INPUT: Would you mind doing `CC(C)(c1cc(Br)c(O)c(Br)c1)c1cc(Br)c(O)c(Br)c1` as well?
OUTPUT: -1

INPUT: Would you mind doing C1CC(COCC2CO2)CCC1COCC1CO1 (centres undefined) as well?
OUTPUT: -1

INPUT: Would you mind doing `CO[C@H]1C=CO[C@@]2(C)Oc3c(C)c(O)c4c(O)c(cc(O)c4c3C2=O)NC(=O)/C(C)=C\C=C/[C@H](C)[C@H](O)[C@@H](C)[C@@H](O)[C@@H](C)[C@H](OC(C)=O)[C@@H]1C` as well?
OUTPUT: 1

INPUT: Would you mind doing `C/C=C/CO` as well?
OUTPUT: -1

INPUT: Would you mind doing `C=C(C)CCCC` as well?
OUTPUT: -1

INPUT: Would you mind doing `O=C(O)CCCCCCC(=O)O` as well?
OUTPUT: -1

INPUT: Would you mind doing `COC(=O)CC#N` as well?
OUTPUT: -1

INPUT: Would you mind doing `O=C1C=CC(=O)N1c1ccccc1` as well?
OUTPUT: 1

INPUT: Would you mind doing `CCCCCCCC/C=C\CCCCCCCC(=O)NCc1ccc(O)c(OC)c1` as well?
OUTPUT: -1

INPUT: Would you mind doing `Cc1occc1SSc1ccoc1C` as well?
OUTPUT: -1

INPUT: Would you mind doing `CCN(CC)c1ccc(N)cc1` as well?
OUTPUT: 1

INPUT: Would you mind doing `CCc1c(Br)c(Br)c(Br)c(Br)c1Br` as well?
OUTPUT: -1

INPUT: Would you mind doing `COc1cccc(OC)c1O` as well?
OUTPUT: -1

INPUT: Would you mind doing CCC(C)c1ccccc1 (centres undefined) as well?
OUTPUT: -1

INPUT: Would you mind doing `CC1CCCCC1` as well?
OUTPUT: -1
